Just for reference, patent US20160264649A1 is where these values come from.

target desc: HIV-1 Env of pseudovirus isolate MGRM-G-009 (subtype G) (HIV-1)
method description: cell-based or functional assay
measured endpoint: IC50

Below, 4 binders whose answers are already recorded.
Answer with the recorded IC50 of PGT-130 (antibody, V domains shown) VH: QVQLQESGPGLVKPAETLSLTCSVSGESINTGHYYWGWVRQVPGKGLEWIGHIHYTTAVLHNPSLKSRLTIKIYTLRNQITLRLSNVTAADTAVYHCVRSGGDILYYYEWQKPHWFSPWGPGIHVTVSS VL: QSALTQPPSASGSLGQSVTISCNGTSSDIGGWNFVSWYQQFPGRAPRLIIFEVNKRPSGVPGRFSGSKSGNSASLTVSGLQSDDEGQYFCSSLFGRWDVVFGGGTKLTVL only. > 50 µg/mL

Note down IC50 recorded for PGT-123 (antibody, V domains shown) VH: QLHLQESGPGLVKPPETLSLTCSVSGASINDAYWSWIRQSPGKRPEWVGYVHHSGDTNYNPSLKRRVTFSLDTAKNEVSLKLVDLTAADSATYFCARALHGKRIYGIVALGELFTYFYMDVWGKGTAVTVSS VL: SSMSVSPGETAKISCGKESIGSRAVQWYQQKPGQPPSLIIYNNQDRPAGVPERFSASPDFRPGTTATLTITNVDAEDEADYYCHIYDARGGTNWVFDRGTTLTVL 33.5 µg/mL

Determine its reported IC50: PGT-126 (antibody, V domains shown) VH: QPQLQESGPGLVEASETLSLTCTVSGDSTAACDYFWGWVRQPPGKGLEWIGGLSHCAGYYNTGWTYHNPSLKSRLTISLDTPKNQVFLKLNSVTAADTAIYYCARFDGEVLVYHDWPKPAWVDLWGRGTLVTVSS VL: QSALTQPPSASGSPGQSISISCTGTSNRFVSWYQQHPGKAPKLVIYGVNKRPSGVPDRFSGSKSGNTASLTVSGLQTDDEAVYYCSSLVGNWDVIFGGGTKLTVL > 50 µg/mL

Report measured IC50; entry is PGT-135 (antibody, V domains shown) VH: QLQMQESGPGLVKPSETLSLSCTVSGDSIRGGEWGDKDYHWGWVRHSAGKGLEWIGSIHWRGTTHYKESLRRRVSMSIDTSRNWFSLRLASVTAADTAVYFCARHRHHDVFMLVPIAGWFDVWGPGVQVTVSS VL: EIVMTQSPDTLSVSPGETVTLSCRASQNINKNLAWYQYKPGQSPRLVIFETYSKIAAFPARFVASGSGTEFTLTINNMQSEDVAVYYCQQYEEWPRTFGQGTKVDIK > 50 µg/mL

Next binder, please.
Tell me measured IC50 for PGT-127 (antibody, V domains shown) VH: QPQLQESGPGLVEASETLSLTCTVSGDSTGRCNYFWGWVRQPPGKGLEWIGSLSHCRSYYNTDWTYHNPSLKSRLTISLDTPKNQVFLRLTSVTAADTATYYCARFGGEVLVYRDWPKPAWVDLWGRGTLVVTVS VL: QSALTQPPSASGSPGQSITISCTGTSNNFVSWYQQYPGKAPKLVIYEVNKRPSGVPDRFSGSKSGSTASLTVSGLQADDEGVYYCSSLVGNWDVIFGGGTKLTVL please. > 50 µg/mL
